- ASSAY TEXT: ATG_AP_1_CIS: Attagene CIS-FACTORIAL HepG2 Assay for human Activator Protein 1 (AP-1) (AID 2282931)
- RUN PARAMETERS: HepG2 Attagene cis-factorial AP-1 reporter mRNA; actives raise or lower the signal
Activity calls are given as the source filed them. How the source made its calls: active means hit-call score of the fitted dose curve at least 0.9, where 1 is the maximum; inactive means score below 0.9.
Bench note: report the call from active, inactive

## Input Write down the call the test reported for this molecule. Item: [Cu+]
## Output inactive

## Input Write down the call the test reported for this molecule. Item: CCC(=O)OCC=Cc1ccccc1
## Output inactive

## Input Write down the call the test reported for this molecule. Item: CCCCOCCOCCOCCO
## Output inactive

## Input Write down the call the test reported for this molecule. Item: CC(=N[Si](C)(C)C)O[Si](C)(C)C
## Output inactive

## Input Write down the call the test reported for this molecule. Item: CCOc1ccc(NC(C)=O)cc1
## Output inactive

## Input Write down the call the test reported for this molecule. Item: COc1ccc(N)c(C)c1
## Output active

## Input Write down the call the test reported for this molecule. Item: O=C(O)c1cc2ccccc2cc1O
## Output inactive

## Input Write down the call the test reported for this molecule. Item: CC(C)C(=O)OCC=Cc1ccccc1
## Output inactive

## Input Write down the call the test reported for this molecule. Item: CCCCCCCCOC(=O)c1ccc(O)cc1
## Output inactive

## Input Write down the call the test reported for this molecule. Item: C1=COCCC1
## Output inactive

## Input Write down the call the test reported for this molecule. Item: CC(C)N(c1ccccc1)C(C)C
## Output inactive

## Input Write down the call the test reported for this molecule. Item: NC(N)=NC(N)=NCCc1ccccc1
## Output inactive

## Input Write down the call the test reported for this molecule. Item: N#CCCCC(C#N)CCC#N (stereo not drawn)
## Output inactive

====

- Read-out: serum amyloid A (SAA), SAA1 (gene 6288)
- ASSAY TEXT: BSK_CASM3C_SAA: BioMAP Diversity Plus: CASM3C Assay for serum amyloid A (SAA) Biomarker Activity (AID 2283049);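 further: SAA protein level quantified by ELISA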
- RUN PARAMETERS: primary human coronary artery smooth muscle cells; actives raise or lower the signal
Calls of active or inactive are those of the source. The calls were made as follows: active = hit-call score of the fitted dose curve at least 0.9, where 1 is the maximum; inactive = score below 0.9.
MEASURED METRIC: AC50

{"RECORD SMILES": "CCCO[Si](OCCC)(OCCC)OCCC", "MEASUREMENT": "inactive"}
{"RECORD SMILES": "C=CC(=O)OCC(CO)(COC(=O)C=C)COC(=O)C=C", "MEASUREMENT": "5.46 µM (active)"}
{"RECORD SMILES": "CC(C)(C)c1cccc(O)c1", "MEASUREMENT": "inactive"}

====

- MEASURED TARGET: Glucocorticoid receptor (Homo sapiens) (UniProt P04150)
- Sequence (P04150 whole entry, looked up): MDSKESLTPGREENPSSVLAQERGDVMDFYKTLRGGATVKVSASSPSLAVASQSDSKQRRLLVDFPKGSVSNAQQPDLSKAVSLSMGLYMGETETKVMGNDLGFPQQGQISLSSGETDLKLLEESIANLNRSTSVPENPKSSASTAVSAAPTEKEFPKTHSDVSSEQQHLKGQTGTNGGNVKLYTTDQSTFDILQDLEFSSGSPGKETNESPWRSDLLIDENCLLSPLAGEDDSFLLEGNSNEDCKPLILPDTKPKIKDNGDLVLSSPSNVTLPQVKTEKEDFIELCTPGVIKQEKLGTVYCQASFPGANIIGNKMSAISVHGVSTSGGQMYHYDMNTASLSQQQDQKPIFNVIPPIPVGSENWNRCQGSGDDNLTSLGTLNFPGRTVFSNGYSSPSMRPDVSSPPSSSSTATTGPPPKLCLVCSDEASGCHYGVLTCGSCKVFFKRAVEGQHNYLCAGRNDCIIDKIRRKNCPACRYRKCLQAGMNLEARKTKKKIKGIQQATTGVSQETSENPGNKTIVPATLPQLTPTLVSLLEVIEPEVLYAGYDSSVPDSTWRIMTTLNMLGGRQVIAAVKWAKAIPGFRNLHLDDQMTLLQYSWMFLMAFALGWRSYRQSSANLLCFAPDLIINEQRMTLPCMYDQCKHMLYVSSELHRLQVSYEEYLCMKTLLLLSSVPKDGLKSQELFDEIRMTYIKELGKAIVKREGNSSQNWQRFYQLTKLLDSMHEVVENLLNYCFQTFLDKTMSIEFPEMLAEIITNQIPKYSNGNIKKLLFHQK
- ASSAY TEXT: ATG_GR_TRANS: Attagene TRANS-FACTORIAL HepG2 Assay for human Glucocorticoid Receptor (GR) (AID 2282978);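 further: activators score as hits since higher reporter transcript over DMSO is fitted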
- RUN PARAMETERS: HepG2 Attagene TRANS GR reporter, mRNA transcription
Records with an inconclusive call do not appear. Calls of active or inactive are those of the source. The calls were made as follows: active = hit-call score of the fitted dose curve at least 0.9, where 1 is the maximum; inconclusive = response in the unintended direction; inactive = score below 0.9.
Bench note: report the call from TRUE (active), FALSE (inactive)

## Input Write down the call the test reported for this compound. Item: O=C(O)CS
## Output FALSE

## Input Write down the call the test reported for this compound. Item: COc1ccc(OC)cc1
## Output FALSE

## Input Write down the call the test reported for this compound. Item: CCCCCCCCCO
## Output FALSE

## Input Write down the call the test reported for this compound. Item: C/C=C(\C)C(=O)OC/C=C(\C)CCC=C(C)C
## Output FALSE

## Input Write down the call the test reported for this compound. Item: CCCc1ccc(O)cc1
## Output FALSE

## Input Write down the call the test reported for this compound. Item: [Cu+]
## Output FALSE

## Input Write down the call the test reported for this compound. Item: CCOc1ccc(NC(C)=O)cc1
## Output FALSE

## Input Write down the call the test reported for this compound. Item: c1ccc(OCCOc2ccccc2)cc1
## Output FALSE

## Input Write down the call the test reported for this compound. Item: CC(=N[Si](C)(C)C)O[Si](C)(C)C
## Output FALSE

## Input Write down the call the test reported for this compound. Item: CCC(C)(C)c1cc(O)c(C(C)(C)CC)cc1O
## Output FALSE

## Input Write down the call the test reported for this compound. Item: CCCCOC(=O)C(C)OC(=O)CCC (centres undefined)
## Output FALSE

## Input Write down the call the test reported for this compound. Item: Cc1cccc(O)c1
## Output FALSE

## Input Write down the call the test reported for this compound. Item: CCCCCC(=O)O[C@]1(C(C)=O)CC[C@H]2[C@@H]3CCC4=CC(=O)CC[C@]4(C)[C@H]3CC[C@@]21C
## Output TRUE

## Input Write down the call the test reported for this compound. Item: CC(=O)N(C)C
## Output FALSE

## Input Write down the call the test reported for this compound. Item: Cc1ccc(C(C)(C)O)cc1
## Output FALSE

## Input Write down the call the test reported for this compound. Item: O=S1(=O)CC(Cl)(Cl)C(Cl)(Cl)C1
## Output FALSE

## Input Write down the call the test reported for this compound. Item: CC/C(=C(\c1ccccc1)c1ccc(OCCN(C)C)cc1)c1ccccc1
## Output FALSE

## Input Write down the call the test reported for this compound. Item: C[C@H](CCC(=O)O)[C@H]1CC[C@H]2[C@@H]3CC[C@@H]4C[C@H](O)CC[C@]4(C)[C@H]3CC[C@]12C
## Output FALSE

## Input Write down the call the test reported for this compound. Item: CC(=O)CC(=O)N(C)C
## Output FALSE
